measurement.target: mGluR2 receptor (metabotropic glutamate receptor 2) (Homo sapiens)
Sequence (Q14416 19-872, species assumed): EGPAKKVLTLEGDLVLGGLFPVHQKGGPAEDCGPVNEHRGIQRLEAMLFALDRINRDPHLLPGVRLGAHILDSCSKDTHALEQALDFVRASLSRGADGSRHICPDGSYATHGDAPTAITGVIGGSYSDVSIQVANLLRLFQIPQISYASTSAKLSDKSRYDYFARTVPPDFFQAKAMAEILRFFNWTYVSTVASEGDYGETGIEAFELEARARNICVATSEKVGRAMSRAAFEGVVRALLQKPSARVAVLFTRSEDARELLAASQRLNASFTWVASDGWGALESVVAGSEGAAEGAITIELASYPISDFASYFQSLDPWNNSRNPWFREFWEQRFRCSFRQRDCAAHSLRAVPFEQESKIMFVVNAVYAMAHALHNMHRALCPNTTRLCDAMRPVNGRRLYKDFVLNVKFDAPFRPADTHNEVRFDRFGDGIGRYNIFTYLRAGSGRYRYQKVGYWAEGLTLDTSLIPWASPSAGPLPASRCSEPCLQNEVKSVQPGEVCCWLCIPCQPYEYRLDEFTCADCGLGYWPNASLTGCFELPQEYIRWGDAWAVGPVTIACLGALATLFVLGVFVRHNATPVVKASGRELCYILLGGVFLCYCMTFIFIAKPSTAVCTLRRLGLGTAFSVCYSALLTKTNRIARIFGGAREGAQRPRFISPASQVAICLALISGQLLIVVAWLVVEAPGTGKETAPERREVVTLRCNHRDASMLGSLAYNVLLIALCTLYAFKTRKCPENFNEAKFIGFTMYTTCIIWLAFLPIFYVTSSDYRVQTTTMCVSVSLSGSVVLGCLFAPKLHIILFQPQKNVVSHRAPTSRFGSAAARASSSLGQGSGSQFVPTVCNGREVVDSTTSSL
test.details: mGluR2 potentiator screen (FLIPR, EC10-EC20 glutamate challenge)
setup.conditions: geometric mean; read-out: mGluR 2 EC50 (geometric mean)
readout: EC50 (nM)

molecule	EC50 (nM)
C[C@@H]1CN(Cc2ccc(-c3ccc(F)cc3F)c(F)c2)C(=O)O1 [Example 288]	36.9
C[C@@H]1CN(Cc2ccc(-c3cccc(F)c3F)cc2)C(=O)O1 [Example 244]	97.2
CC(=O)c1ccc(-c2ccc(CN3C[C@@H](C)OC3=O)cc2)cc1 [Example 171]	60.2
CC1CN(Cc2ccc(OC(C)C3CC3)cc2)C(=O)O1 (stereo not drawn) [Example 135]	1890
C[C@@H]1CN(Cc2ccc(-c3ccc(C(F)(F)F)cc3)nc2)C(=O)O1 [Example 265]	1100

a = C[C@@H]1CN(Cc2ccc(-c3cccc(F)c3F)c(F)c2)C(=O)O1 [Example 289]
b = C[C@@H]1CN(Cc2ccc(OCC3CCCCC3)c(Cl)c2)C(=O)O1 [Example 286]
Challenge: Of the two listed items, which has the higher EC50? First: a Second: b # respond with the chosen item's label
Response given: a
(a: 93.7 nM, b: 32.5 nM)

* * *

measurement.target: mGluR2 receptor (metabotropic glutamate receptor 2) (Homo sapiens)
test.details: mGluR2 potentiator screen (FLIPR, EC10-EC20 glutamate challenge)
setup.conditions: geometric mean; read-out: mGluR 2 EC50 (geometric mean)
readout: EC50 (nM)

Known EC50 results, listed for orientation:
molecule	EC50 [nM]
CC(C)COc1ccc(CN2C(=O)O[C@H](c3ccccc3)[C@@H]2C)cc1 [Example 26]	542
CC(=O)c1ccccc1-c1ccc(CN2C[C@@H](C)OC2=O)cc1 [Example 175]	805
CC(Oc1ccc(CN2CC(C)(C)COC2=O)cc1)c1ccccc1 (stereo not shown) [Example 45]	213
C[C@H]1[C@@H](c2ccccc2)OC(=O)N1Cc1ccc(OCCC2CCCCC2)cc1 [Example 30]	987
C[C@@H]1CN(Cc2ccc(-c3cccc4cccnc34)cc2)C(=O)O1 [Example 173]	930

P = C[C@@H]1CN(Cc2ccc(/C=C/c3ccccc3)cc2)C(=O)O1 [Example 317]
Q = C[C@@H]1CN(Cc2ccc(-c3c(F)cccc3F)cc2)C(=O)O1 [Example 247]
R = C[C@@H]1CN(Cc2ccc(-c3ccc(C(F)(F)F)cc3Cl)nc2)C(=O)O1 [Example 268]
Challenge: Hey, quick one: sort these by EC50, largest value first please. Sort and list the labels as requested.
Response given: Q, R, P
(Q: 211 nM, R: 102 nM, P: 36.4 nM)

* * *

measurement.target: mGluR2 receptor (metabotropic glutamate receptor 2) (Homo sapiens)
test.details: mGluR2 potentiator screen (FLIPR, EC10-EC20 glutamate challenge)
setup.conditions: geometric mean; read-out: mGluR 2 EC50 (geometric mean)
readout: EC50 (nM)

P = CC1CN(Cc2ccc(OCCc3cccc(Cl)c3)cc2)C(=O)O1 (stereo not drawn)
Q = Cc1c(COc2ccc(CN3CC(C)OC3=O)cc2)cnn1-c1ccccc1 (stereo not drawn)
Challenge: Of the two listed items, which has the higher EC50? First: P Second: Q Select an item and report its label.
Response given: Q

A = C[C@@H]1CN(Cc2ccc(-c3ccc(N(C)C)nc3)cc2)C(=O)O1
B = CC1CN(Cc2ccc(OCCc3cccc(F)c3)cc2)C(=O)O1 (stereo not drawn)
C = CC(Oc1ccc(CN2CCN(C(C)C3CCC3)CC2=O)cc1)C1CCCCC1 (stereo not drawn)
D = CC1CN(Cc2ccc(OCc3ccc(-n4cccn4)cc3)cc2)C(=O)O1 (stereo not drawn)
Challenge: Would you mind ranking these compounds by ascending EC50? Give your ranking as a list of the labels in the requested order.
Response given: D, B, A, C
(D: 125 nM, B: 188 nM, A: 489 nM, C: 794 nM)

P = O=C1OC[C@@H]2CCCC[C@@H]2N1Cc1ccc(OC2CCCCC2)cc1
Q = Cc1cc(CN2C[C@@H](C)OC2=O)ccc1OCC1CCCCC1
R = O=C1OC(c2ccccc2)CN1Cc1ccc(OC2CCOCC2)cc1 (stereo not drawn)
Challenge: List these items ordered by EC50, big to small. Your answer should be the labels, listed in the requested order.
Response given: R, P, Q

* * *

measurement.target: UniProt:Q14416
test.details: mGluR2 potentiator screen (FLIPR, EC10-EC20 glutamate challenge)
setup.conditions: geometric mean; read-out: mGluR 2 EC50 (geometric mean)
readout: EC50 (nM)

a = CC(Oc1ccc(CN2CCN(CC(C)(C)C)CC2=O)cc1)C1CCCCC1 (stereo not drawn)
b = C[C@H]1[C@@H](c2ccccc2)OC(=O)N1Cc1ccc(OC2CCCCC2)cc1
c = C[C@@H]1CN(Cc2cnc(-c3cccc(F)c3F)c(F)c2)C(=O)O1
Challenge: # order the compounds above by EC50, highest value first Output spec: labels arranged per the requested ranking.
Response given: c, a, b
(c: 1360 nM, a: 584 nM, b: 356 nM)

* * *

measurement.target: mGluR2 receptor (metabotropic glutamate receptor 2) (Homo sapiens)
test.details: mGluR2 potentiator screen (FLIPR, EC10-EC20 glutamate challenge)
setup.conditions: geometric mean; read-out: mGluR 2 EC50 (geometric mean)
pEC50: −log10 of the molar value.
readout: pEC50

compound	pEC50
Cc1oc(-c2ccccc2)nc1CCOc1ccc(CN2CC(C)OC2=O)cc1 (stereo not drawn)	6.56

I = CCC[C@H](C)Oc1ccc(CN2CC(C)OC2=O)cc1 (stereo partly drawn)
II = COc1ccc(F)cc1-c1ccc(CN2C[C@@H](C)OC2=O)cn1
Challenge: Lab note: record which item had the higher pEC50, I or II . Response format: the label of the selected entry.
Response given: I

* * *

measurement.target: UniProtKB Q14416
test.details: mGluR2 potentiator screen (FLIPR, EC10-EC20 glutamate challenge);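 note: HEK cells stably expressing human mGluR2 with GL15 G protein, Fluo-4 calcium fluorescence read on FLIPR, compounds added before an EC10-EC20 glutamate challenge to detect potentiation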
setup.conditions: geometric mean; read-out: mGluR 2 EC50 (geometric mean)
readout: EC50 (nM)

Worked examples follow.
compound	readout	observed.result
CC(C)CCOc1ccc(CN2CC(C)OC2=O)cc1 (stereo not drawn) [Example 143]	EC50	75.5
CCCOc1ccc(CN2C(=O)O[C@H](c3ccccc3)[C@@H]2C)cc1 [Example 23]	EC50	887
CC1CN(Cc2ccc(OCc3cccc(Cl)c3)cc2)C(=O)O1 (stereo not drawn) [Example 108]	EC50	91.2
CN(C)CC1CN(Cc2ccc(-c3ccc(F)cc3F)cc2)C(=O)O1 (stereo not drawn) [Example 307]	EC50	1360
CCN1CCN(Cc2ccc(OC(C)C3CCCCC3)cc2)C(=O)C1 (stereo not drawn) [Example 188]	EC50	725

A = CC1CN(Cc2ccc(OCc3ccccc3Cl)cc2)C(=O)O1 (stereo not drawn) [Example 117]
B = C[C@@H]1CN(Cc2ccc(-c3ccc(F)c(F)c3)cc2)C(=O)O1 [Example 245]
Challenge: When the recorded EC50 values are compared, which is smaller: that of A or that of B ? Let me know the label of the one you choose.
Response given: A
(A: 34.5 nM, B: 92.9 nM)

1 = CC1CN(Cc2ccc(OCCCOc3ccc(F)cc3)cc2)C(=O)O1 (stereo not drawn) [Example 152]
2 = COc1c(-c2ccc(F)cc2)ccc(CN2C[C@@H](C)OC2=O)c1F [Example 253]
Challenge: Would you mind telling me which has the lower recorded EC50 between 1 and 2 ? Select an item and report its label.
Response given: 1

a = C[C@@H]1CN(Cc2ccc(-c3nc(C(C)(C)C)cs3)cc2)C(=O)O1 [Example 183]
b = CC(Oc1ccc(CN2CCN(CCC(F)(F)F)CC2=O)cc1)C1CCCCC1 (stereo not drawn) [Example 222]
Challenge: Endpoint returns the identifier whose EC50 is numerically larger, either a or b . Could you answer with the label of the item you picked?
Response given: b

I = CC(C)Oc1ccc(-c2ccc(CN3C[C@@H](C)OC3=O)cc2)c(F)c1 [Example 281]
II = C[C@@H]1CN(Cc2ccc(-c3ccc(C(F)(F)F)cc3F)c(F)c2)C(=O)O1 [Example 292]
III = O=C1OC(c2ccccc2)CN1Cc1ccc(OCc2ccccc2)cc1 (stereo not drawn) [Example 8]
IV = C[C@@H]1CN(Cc2ccc(-c3cnc4ccccc4c3)c(F)c2)C(=O)O1 [Example 294]
V = CC1(C)COC(=O)N(Cc2ccc(OCC3CCC3)cc2)C1 [Example 15]
Challenge: List these items ordered by EC50, big to small. Please, when replying, give the labels in the order that was requested.
Response given: V, IV, III, II, I

I = COc1ccc(CCCOc2ccc(CN3CC(C)OC3=O)cc2)cc1 (stereo not drawn) [Example 98]
II = COc1ccc(F)c(COc2ccc(CN3CC(C)OC3=O)cc2)c1 (stereo not drawn) [Example 151]
Challenge: In terms of reported EC50, does I or II have the smaller number? Selection: enter the item's label.
Response given: I
(I: 7.07 nM, II: 92.1 nM)
